- Test system: SNB-75
- test-description: NCI tumour cell line growth inhibition, 48 h
Activity calls are given as the source filed them. Cut-off read from the data, not from the text of the source: active = GI50 up to about 1.1 µM and inactive = higher.
Here, each record is paired with measured GI50 data.

QUERY: Find the measured GI50 of CN(C)C(=S)/N=c1\ss/c(=N\C(=S)N(C)C)n1-c1ccc2c(c1)OCO2 with SNB-75 as test system.
RESULT: > 100 µM (inactive)

QUERY: Find GI50 for [O-][S+](Cc1ccccc1)c1ccccc1Cn1cccc1 (centres undefined) on SNB-75 and write it down.
RESULT: 74.3 µM (inactive)

***
QUERY: Please report GI50 with SNB-75 for item O=C(CC(C(=O)c1cccs1)c1ccsc1)c1ccccc1 (centres undefined) .
RESULT: > 100 µM (inactive)

QUERY: Provide GI50, recorded with SNB-75, of CN/C(N)=N/N=C1/C(=O)Nc2ccccc21
RESULT: > 100 µM (inactive)

Where do the numbers come from? From ChEMBL document CHEMBL1201862.
